# experimental.protocol: Cmax in ICR mouse at 30 mg/kg, po measured for 1 to 24 hrs by UPLC analysis
# Format: ADME, organism-based
# condition.context: in vivo, time 1-24 hrs
assay.readout: Cmax
Quick note: unit goes after the number.

Could you tell me which Cmax is on file for `Cl.NCc1ccc(-c2nc(-c3ccnc(Oc4ccc(C(F)(F)F)cc4)c3)no2)cc1` ?
1440 ng/mL

====

# Tested on: Clostridioides difficile
# experimental.protocol: Antibacterial activity against Clostridium difficile ATTC43255 assessed as spore germination inhibition at 45 uM incubated for 60 mins by spectrometry relative to control
# Assay type: functional
# condition.context: ATTC43255, 1 h
Please go through the items and note down their inhibition at 45 µM.

Examples with answers:
- molecule: "CCN(CC)CCc1nc(-c2ccccc2)no1"
  inhibition at 45 µM: "< 10%"
- molecule: "NCc1ccc(-c2nc(-c3ccnc(N4CCCC4)c3)no2)cc1"
  inhibition at 45 µM: "13%"
- molecule: "c1cc2cc(-c3nc(-c4ccc(OC5CCCC5)cc4)no3)ccc2[nH]1"
  inhibition at 45 µM: "< 10%"
- molecule: "Nc1ccc(-c2nc(-c3ccc(Oc4ccc(C(F)(F)F)cc4)cc3)no2)cc1F"
  inhibition at 45 µM: "< 10%"
- molecule: "O=[N+]([O-])c1ccccc1Oc1ccc(-c2noc(-c3ccc(O)cc3)n2)cc1"
  inhibition at 45 µM: "21%"

Quick batch: inhibition at 45 µM for everything below.
1. CCCCOc1ccc(-c2noc(-c3ccc(O)cc3)n2)cc1
2. Oc1ccc(-c2nc(-c3ccc(Oc4cccc(I)c4)cc3)no2)cc1
3. FC(F)(F)c1ccc(Oc2ccc(-c3noc(-c4n[nH]cc4NC4CCCC4)n3)cc2)cc1

["< 10%", "37%", "< 10%"]

Each of the following entries comes with a recorded value; kindly state inhibition at 45 µM for each.
1. O=C1C[C@H](c2nc(-c3ccc(Oc4ccc(C(F)(F)F)cc4)cc3)no2)CN1
2. CCOc1ccc(-c2nc(-c3cccc4c3CCC4NCCO)no2)cc1OCC (stereo unspecified)

1: < 10%; 2: < 10%

State its inhibition at 45 µM on Clostridioides difficile: `O=C(O)c1cccc(-c2noc(-c3ccccc3F)n2)c1`
< 10%

Values from ChEMBL document CHEMBL6134901
